Assay: Solubility of HPC in benzyl benzoate/castor oil mixtures
Assay type: physicochemical
Conditions: benzyl benzoate/castor oil mixture, 5 °C, oil or lipid, 5° C., 53.01 wt % BB relative to castor oil; read-out: mg HPC/mL solution (solubility)
RECORDED METRIC: solubility
Write the figure, then the unit, nothing else.

State, in one line, measured solubility of CCCCCC(=O)O[C@]1(C(C)=O)CC[C@H]2[C@@H]3CCC4=CC(=O)CC[C@]4(C)[C@H]3CC[C@@]21C [17-HPC, 17-alpha-hydroxyprogesterone caproate] 200 mg/mL

###

Assay: Solubility of HPC in benzyl benzoate/castor oil mixtures
Assay type: physicochemical
Conditions: benzyl benzoate/castor oil mixture, 25 °C, oil or lipid, 25° C., 81.79 wt % BB relative to castor oil; read-out: mg HPC/mL solution (solubility)
RECORDED METRIC: solubility (mg/mL)
Answer format: numeric, mg/mL implied, no suffix.

State, in one line, measured solubility of CCCCCC(=O)O[C@]1(C(C)=O)CC[C@H]2[C@@H]3CCC4=CC(=O)CC[C@]4(C)[C@H]3CC[C@@]21C [17-HPC, 17-alpha-hydroxyprogesterone caproate] 363

###

Experiment: Solubility of HPC in benzyl benzoate/castor oil mixtures
Type: physicochemical
Details: benzyl benzoate/castor oil mixture, 15 °C, oil or lipid, thermodynamic from solid, 15° C., 53.01 wt % BB relative to castor oil; read-out: mg HPC/mL solution (solubility)
RECORDED METRIC: solubility (mg/mL)
Answer format: numeric, mg/mL implied, no suffix.

State, in one line, measured solubility of CCCCCC(=O)O[C@]1(C(C)=O)CC[C@H]2[C@@H]3CCC4=CC(=O)CC[C@]4(C)[C@H]3CC[C@@]21C [17-HPC, 17-alpha-hydroxyprogesterone caproate] 220

###

Assay: Single-dose crossover pharmacokinetic study of 17-HPC, SQ (upper anterior thigh) vs IM (gluteus maximus) injection
Format: in vivo, human
Settings: female, human, subcutaneous; SQ injection 250 mg (1 mL) upper anterior thigh, single dose, healthy postmenopausal women, plasma; read-out: AUC0-t, LS Geometric Mean
RECORDED METRIC: AUC(0-t) (ng·h/mL)
Answer format: numeric, ng·h/mL implied, no suffix.

State, in one line, measured AUC(0-t) of CCCCCC(=O)O[C@]1(C(C)=O)CC[C@H]2[C@@H]3CCC4=CC(=O)CC[C@]4(C)[C@H]3CC[C@@]21C [17-HPC, 17-alpha-hydroxyprogesterone caproate] 458

###

Test: Randomized bioavailability study of 17-HPC, SC injection in triceps area (1.1 or 1.2 mL) vs IM injection (1.0 mL)
Assay type: in vivo, human
Details: female, human, plasma; SC 1.1 mL (275 mg) triceps area; read-out: t½, geometric mean (geometric CV) (converted)
RECORDED METRIC: half-life
Write the figure, then the unit, nothing else.

State, in one line, measured half-life of CCCCCC(=O)O[C@]1(C(C)=O)CC[C@H]2[C@@H]3CCC4=CC(=O)CC[C@]4(C)[C@H]3CC[C@@]21C [17-HPC, 17-alpha-hydroxyprogesterone caproate] 223 h

###

Test: Randomized bioavailability study of 17-HPC, SC injection in triceps area (1.1 or 1.2 mL) vs IM injection (1.0 mL)
Format: in vivo, human
Details: female, human, plasma; SC 1.2 mL (300 mg) triceps area; read-out: t½, geometric mean (geometric CV) (converted)
RECORDED METRIC: half-life (h)
Answer format: numeric, h implied, no suffix.

State, in one line, measured half-life of CCCCCC(=O)O[C@]1(C(C)=O)CC[C@H]2[C@@H]3CCC4=CC(=O)CC[C@]4(C)[C@H]3CC[C@@]21C [17-HPC, 17-alpha-hydroxyprogesterone caproate] 225
